Values were extracted from patent US20240084003A1.

Biological target: T1, murine CD22 protein (ACROBiosystems, SI2-M52Ha) (murine, UniProt P35329 22-708)
T1 construct: extracellular domain; also called murine CD22-ECD; murine CD22-ECD-His
T1 sequence (looked up): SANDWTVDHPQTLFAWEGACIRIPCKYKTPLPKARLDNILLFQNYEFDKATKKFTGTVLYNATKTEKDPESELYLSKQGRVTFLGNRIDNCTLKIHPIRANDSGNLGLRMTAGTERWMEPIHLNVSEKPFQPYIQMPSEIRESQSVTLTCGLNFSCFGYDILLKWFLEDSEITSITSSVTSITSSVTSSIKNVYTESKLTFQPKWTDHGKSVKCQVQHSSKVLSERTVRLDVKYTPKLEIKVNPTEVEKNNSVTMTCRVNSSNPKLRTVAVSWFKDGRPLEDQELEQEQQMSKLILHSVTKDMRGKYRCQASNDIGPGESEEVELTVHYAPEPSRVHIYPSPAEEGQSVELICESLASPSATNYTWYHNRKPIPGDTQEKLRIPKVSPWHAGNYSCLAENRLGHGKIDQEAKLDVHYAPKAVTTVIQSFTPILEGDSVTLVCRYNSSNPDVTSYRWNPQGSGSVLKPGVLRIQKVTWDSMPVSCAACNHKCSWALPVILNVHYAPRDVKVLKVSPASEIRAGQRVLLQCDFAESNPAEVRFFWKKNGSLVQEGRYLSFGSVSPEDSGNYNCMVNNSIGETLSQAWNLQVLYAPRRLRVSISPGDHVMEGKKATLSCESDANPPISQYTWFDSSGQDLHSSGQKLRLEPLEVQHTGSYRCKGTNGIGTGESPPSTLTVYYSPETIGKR
Experiment: ELISA, coated murine CD22, 0.1 nM Ab
# OD450 annotations
Entry rule: numbers only, all in OD450.

Consider the worked cases shown below.
{"Binder": "F2.99.1 human-murine chimeric antibody (antibody, human IgG1, lambda, V domains shown, Chimeric, human IgG1 / lambda; VL tied by name) VH: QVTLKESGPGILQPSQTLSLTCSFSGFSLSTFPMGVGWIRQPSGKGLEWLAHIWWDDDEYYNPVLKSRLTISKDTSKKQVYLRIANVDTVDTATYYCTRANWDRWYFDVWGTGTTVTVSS VL: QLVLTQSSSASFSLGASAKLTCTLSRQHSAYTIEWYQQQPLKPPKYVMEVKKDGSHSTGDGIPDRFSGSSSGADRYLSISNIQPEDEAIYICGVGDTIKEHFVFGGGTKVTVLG", "Measured metric": "OD450", "Endpoint value": 0.05}
{"Binder": "F1.200.11 human-murine chimeric antibody (antibody, human IgG1, kappa, V domains shown, Chimeric, human IgG1 / kappa) VH: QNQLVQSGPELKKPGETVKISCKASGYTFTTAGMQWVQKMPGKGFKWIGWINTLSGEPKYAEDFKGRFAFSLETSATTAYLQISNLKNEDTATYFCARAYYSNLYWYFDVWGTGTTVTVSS VL: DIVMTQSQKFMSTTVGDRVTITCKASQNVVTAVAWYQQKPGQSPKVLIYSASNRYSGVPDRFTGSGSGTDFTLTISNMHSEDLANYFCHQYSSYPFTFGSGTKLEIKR", "Measured metric": "OD450", "Endpoint value": 0.05}

Data request: Using the record for F2.151.13 human-murine chimeric antibody (antibody, human IgG1, lambda, V domains shown, Chimeric, human IgG1 / lambda) VH: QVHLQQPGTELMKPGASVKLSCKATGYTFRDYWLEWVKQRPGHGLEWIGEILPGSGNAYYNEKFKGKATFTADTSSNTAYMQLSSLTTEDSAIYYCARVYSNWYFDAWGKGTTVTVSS VL: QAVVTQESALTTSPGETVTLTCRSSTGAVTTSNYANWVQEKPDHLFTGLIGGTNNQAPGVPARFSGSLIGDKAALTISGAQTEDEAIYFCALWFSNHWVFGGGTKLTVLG , report its OD450.
Data returned: 0.07

Data request: What would you report for F2.127.11 human-murine chimeric antibody (antibody, human IgG1, lambda, V domains shown, Chimeric, human IgG1 / lambda; VL tied by name) VH: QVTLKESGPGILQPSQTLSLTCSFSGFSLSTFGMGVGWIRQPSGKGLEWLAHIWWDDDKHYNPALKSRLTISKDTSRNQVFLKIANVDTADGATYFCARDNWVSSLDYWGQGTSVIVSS VL: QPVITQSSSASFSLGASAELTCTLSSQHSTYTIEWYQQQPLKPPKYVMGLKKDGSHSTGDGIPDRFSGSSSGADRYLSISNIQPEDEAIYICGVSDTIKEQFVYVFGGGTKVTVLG ?
Data returned: 0.06

Data request: Now consider F1.257.3 human-murine chimeric antibody (antibody, human IgG1, kappa, V domains shown, Chimeric, human IgG1 / kappa; VL tied by name) VH: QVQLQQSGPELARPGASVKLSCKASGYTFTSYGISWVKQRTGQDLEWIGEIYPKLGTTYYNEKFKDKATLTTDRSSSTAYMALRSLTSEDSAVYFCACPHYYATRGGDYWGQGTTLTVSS VL: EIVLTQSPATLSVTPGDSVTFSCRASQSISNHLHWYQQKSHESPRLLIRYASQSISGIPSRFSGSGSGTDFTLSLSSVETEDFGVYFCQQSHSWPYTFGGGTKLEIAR .
Data returned: 0.05
